biological target: NHE3 (Homo sapiens, UniProt P48764); experiment: Determination of the NHE-inhibitory effect (recovery of intracellular pH after acidification, BCECF fluorescence); details: pH recovery recorded for three minutes with NHE3; BCECF-loaded cells
Sequence (P48764 26-834, species assumed): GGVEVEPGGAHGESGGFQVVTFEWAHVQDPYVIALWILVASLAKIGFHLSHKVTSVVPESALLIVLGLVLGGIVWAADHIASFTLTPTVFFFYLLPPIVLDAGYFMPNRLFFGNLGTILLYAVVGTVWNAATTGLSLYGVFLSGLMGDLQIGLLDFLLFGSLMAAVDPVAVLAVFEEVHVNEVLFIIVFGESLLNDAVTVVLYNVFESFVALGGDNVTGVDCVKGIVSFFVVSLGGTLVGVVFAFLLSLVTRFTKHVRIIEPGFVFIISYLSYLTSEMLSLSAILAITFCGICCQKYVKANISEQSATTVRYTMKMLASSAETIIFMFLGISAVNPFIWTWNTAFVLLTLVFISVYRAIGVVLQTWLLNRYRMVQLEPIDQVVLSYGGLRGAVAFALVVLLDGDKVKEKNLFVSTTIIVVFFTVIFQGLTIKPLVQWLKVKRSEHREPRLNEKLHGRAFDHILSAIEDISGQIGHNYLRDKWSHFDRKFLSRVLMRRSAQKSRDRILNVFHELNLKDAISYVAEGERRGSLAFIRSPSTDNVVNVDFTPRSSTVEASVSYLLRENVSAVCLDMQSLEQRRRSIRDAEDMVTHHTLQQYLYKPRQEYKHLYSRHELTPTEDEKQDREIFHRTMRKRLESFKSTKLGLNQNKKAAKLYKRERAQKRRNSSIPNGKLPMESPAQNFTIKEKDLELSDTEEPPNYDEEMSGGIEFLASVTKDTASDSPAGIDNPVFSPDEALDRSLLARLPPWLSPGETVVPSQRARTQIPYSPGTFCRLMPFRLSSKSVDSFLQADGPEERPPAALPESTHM
Where a name gives a salt, the structure may show the parent alone.
# IC50 per entry
parameter: IC50 (µM)

{"columns": ["compound", "measured-value"],
 "data": [
  ["NC1=NCC(c2ccc(N)cc2)c2cc(Cl)ccc21 (stereo not shown) [Example 1A, Hydrochloride]", 1.95],
  ["NC1=NCC(c2ccc(N)cc2)c2ccccc21 (stereo not shown) [Example 1B, Hydrochloride]", 8.24],
  ["NC1=NCC(c2ccccc2N)c2cc(Cl)ccc21 (stereo not shown) [Example 2, Hydrochloride]", 1.63],
  ["CNC1=NCC(c2ccc(N)cc2)c2cc(Cl)ccc21 (stereo not shown) [Example 3, Hydrochloride]", 4.93]
]}
